molecular target: Caspase-3 (Homo sapiens, UniProt P42574); assay: Inhibition of staurosporine induced activation of caspase 3 activation in human Hela cells assessed as hydrolysis of Z-DEVD-R110 substrate by microplate fluorescence assay
Sequence (P42574 29-175 limits assumed): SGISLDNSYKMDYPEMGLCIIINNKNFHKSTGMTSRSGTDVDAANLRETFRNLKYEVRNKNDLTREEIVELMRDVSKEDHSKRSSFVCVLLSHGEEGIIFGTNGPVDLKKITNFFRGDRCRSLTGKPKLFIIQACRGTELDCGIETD
Sequence (P42574 176-277 limits assumed): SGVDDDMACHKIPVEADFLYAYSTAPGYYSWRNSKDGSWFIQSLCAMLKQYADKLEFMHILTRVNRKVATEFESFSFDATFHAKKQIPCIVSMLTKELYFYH
metricName: log10 EC50 (log10 of the value in µM)

>>> print(df.to_string())
                                  chemsmiles                             subjectoftest  metricname  number
 0  O=C1C(=O)N(Cc2cn(CCF)nn2)c2ccc(S(=O)(=O)N3CC[C@H]3COc3ccc(F)cc3F)cc21  Caspase-3 (Homo sapiens, UniProt P42574)  log10 EC50    0.03
 1  COc1ccc(CN2C(=O)C(=O)c3cc(S(=O)(=O)N4CC[C@H]4COc4cccnc4)ccc32)cc1  Caspase-3 (Homo sapiens, UniProt P42574)  log10 EC50   -0.35
 2  O=C1C(=O)N(Cc2ccc(OCCF)cc2)c2ccc(S(=O)(=O)N3CC[C@H]3COc3ccc(F)cc3F)cc21  Caspase-3 (Homo sapiens, UniProt P42574)  log10 EC50    0.14
 3  O=C1C(=O)N(Cc2ccc(OCCF)cc2)c2ccc(S(=O)(=O)N3CC[C@H]3COc3ccccc3)cc21  Caspase-3 (Homo sapiens, UniProt P42574)  log10 EC50    0.30
 4  O=C1C(=O)N(Cc2cn(CCF)nn2)c2ccc(S(=O)(=O)N3CC[C@H]3COc3ccccc3)cc21  Caspase-3 (Homo sapiens, UniProt P42574)  log10 EC50   -0.10
 5  O=C1C(=O)N(Cc2cn(CCF)nn2)c2ccc(S(=O)(=O)N3CC[C@H]3COc3cccnc3)cc21  Caspase-3 (Homo sapiens, UniProt P42574)  log10 EC50   -0.38
 6  O=C1C(=O)N(Cc2ccc(OCCF)cc2)c2ccc(S(=O)(=O)N3CCC[C@H]3COc3cccnc3)cc21  Caspase-3 (Homo sapiens, UniProt P42574)  log10 EC50   -0.41
 7  COc1ccc(CN2C(=O)C(=O)c3cc(S(=O)(=O)N4CCC[C@H]4COc4cccnc4)ccc32)cc1  Caspase-3 (Homo sapiens, UniProt P42574)  log10 EC50   -0.35
 8  O=C1Nc2ccc(S(=O)(=O)N3CCC[C@H]3COc3cccnc3)cc2C1=O  Caspase-3 (Homo sapiens, UniProt P42574)  log10 EC50    0.26
 9  O=C1C(=O)N(Cc2ccc(OCCF)cc2)c2ccc(S(=O)(=O)N3CCC[C@H]3COc3ccc(F)cc3F)cc21  Caspase-3 (Homo sapiens, UniProt P42574)  log10 EC50    0.40
10  CN1C(=O)C(=O)c2cc(S(=O)(=O)N3CCC[C@H]3COc3cccnc3)ccc21  Caspase-3 (Homo sapiens, UniProt P42574)  log10 EC50    0.26
11  O=C1C(=O)N(Cc2cn(CCF)nn2)c2ccc(S(=O)(=O)N3CCC[C@H]3COc3cccnc3)cc21  Caspase-3 (Homo sapiens, UniProt P42574)  log10 EC50   -0.46
12  O=C1C(=O)N(Cc2ccc(OCCOCCF)cc2)c2ccc(S(=O)(=O)N3CC[C@H]3COc3ccccc3)cc21  Caspase-3 (Homo sapiens, UniProt P42574)  log10 EC50    0.33
13  COc1ccc(CN2C(=O)C(=O)c3cc(S(=O)(=O)N4CC[C@H]4COc4ccccc4)ccc32)cc1  Caspase-3 (Homo sapiens, UniProt P42574)  log10 EC50    0.49
14  O=C1C(=O)N(Cc2ccccc2)c2ccc(S(=O)(=O)N3CCC[C@H]3COc3cccnc3)cc21  Caspase-3 (Homo sapiens, UniProt P42574)  log10 EC50   -0.19
15  O=C1Nc2ccc(S(=O)(=O)N3CC[C@H]3COc3ccccc3)cc2C1=O  Caspase-3 (Homo sapiens, UniProt P42574)  log10 EC50    0.98
16  O=C1C(=O)N(Cc2ccc(OCCF)cc2)c2ccc(S(=O)(=O)N3CC[C@H]3COc3cccnc3)cc21  Caspase-3 (Homo sapiens, UniProt P42574)  log10 EC50   -0.42
17  CN1C(=O)C(=O)c2cc(S(=O)(=O)N3CC[C@H]3COc3ccccc3)ccc21  Caspase-3 (Homo sapiens, UniProt P42574)  log10 EC50    0.51
18  O=C1C(=O)N(Cc2ccccc2)c2ccc(S(=O)(=O)N3CCC[C@H]3COc3ccccc3)cc21  Caspase-3 (Homo sapiens, UniProt P42574)  log10 EC50    0.56
